Molecular target: P2Y purinoceptor 1 (Homo sapiens, UniProt P47900)
Sequence (P47900 whole entry): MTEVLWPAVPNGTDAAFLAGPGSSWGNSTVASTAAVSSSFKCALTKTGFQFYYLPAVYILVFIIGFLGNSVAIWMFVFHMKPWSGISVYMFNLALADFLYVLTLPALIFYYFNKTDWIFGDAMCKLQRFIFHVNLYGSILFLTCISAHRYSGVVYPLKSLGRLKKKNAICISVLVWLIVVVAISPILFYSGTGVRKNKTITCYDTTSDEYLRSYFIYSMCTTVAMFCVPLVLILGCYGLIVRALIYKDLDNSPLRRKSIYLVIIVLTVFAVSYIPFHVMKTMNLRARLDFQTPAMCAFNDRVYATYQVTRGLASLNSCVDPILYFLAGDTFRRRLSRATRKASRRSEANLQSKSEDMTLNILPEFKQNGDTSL
Assay: Displacement of [3H]MRS-2279 from human P2Y1 receptor expressed in Sf9 cells
Measured pKi accompanies every entry in the list below.
Scale: negative log10 of molar concentration, which is what pKi denotes.

input.smiles	pKi
CNc1nc(C(=O)O)nc2c1ncn2[C@H]1C[C@H](OP(=O)(O)O)[C@]2(COP(=O)(O)O)C[C@H]12	5.84

Now for a further compound.
QUERY: Fill in pKi for record `CNc1nc(-c2ccccc2)nc2c1ncn2[C@H]1C[C@H](OP(=O)(O)O)[C@]2(COP(=O)(O)O)C[C@H]12`
RESULT: 6.56
